# credit: patent US8604195B2

Subject of test: Mouse 11-β-HSD1 (Mus musculus, UniProt P50172)
Sequence (P50172 whole entry): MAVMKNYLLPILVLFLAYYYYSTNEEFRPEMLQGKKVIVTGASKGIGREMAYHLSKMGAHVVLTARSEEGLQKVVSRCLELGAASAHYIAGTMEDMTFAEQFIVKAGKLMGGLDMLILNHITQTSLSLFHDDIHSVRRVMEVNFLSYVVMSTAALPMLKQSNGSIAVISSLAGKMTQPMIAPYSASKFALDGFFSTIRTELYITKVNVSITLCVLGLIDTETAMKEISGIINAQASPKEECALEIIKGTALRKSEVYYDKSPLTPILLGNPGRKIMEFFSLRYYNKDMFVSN
Assay method text: 11β-HSD1 enzymatic activity, 3H-cortisone SPA, mouse enzyme
Test conditions: Mouse 11-β-HSD1 IC50 (nM), membrane, 125 nM 3H-cortisone, 1 hr room temperature
Readings of log10(IC50) for the listed compounds
Recorded IC50 (log10, nM)

# Compound, Quantity name, Readout number
data = [
    ("CCC(C)(C)c1ccc(S(=O)(=O)N2C[C@@H]3C[C@H]2CN3C)cc1", "log10(IC50)", 2.41),
    ("CC(C)(C)c1ccc(S(=O)(=O)N2C3CCC2CC(O)(Cc2ccccc2)C3)cc1 (centres unmarked)", "log10(IC50)", 2.06),
    ("CC(C)(C)c1ccc(S(=O)(=O)N2C3CCC2CC(Oc2ccc(C#N)cn2)C3)cc1 (single isomer, unassigned) [Compound 6]", "log10(IC50)", 3.75),
    ("CC(C)(C)c1ccc(S(=O)(=O)N2C3CCC2CC(Oc2ccc(C#N)cn2)C3)cc1 (single isomer, unassigned) [Compound 5]", "log10(IC50)", 4.38),
]

**Query** // map CC(C)(C)c1ccc(S(=O)(=O)N2C3CCC2CC(O)(c2ccccc2)C3)cc1 (centres unmarked) to recorded log10(IC50) (system: Mouse 11-β-HSD1 (Mus musculus, UniProt P50172))
**Result** 2.14

* * *

Subject of test: UniProtKB P28845
Sequence (P28845 whole entry): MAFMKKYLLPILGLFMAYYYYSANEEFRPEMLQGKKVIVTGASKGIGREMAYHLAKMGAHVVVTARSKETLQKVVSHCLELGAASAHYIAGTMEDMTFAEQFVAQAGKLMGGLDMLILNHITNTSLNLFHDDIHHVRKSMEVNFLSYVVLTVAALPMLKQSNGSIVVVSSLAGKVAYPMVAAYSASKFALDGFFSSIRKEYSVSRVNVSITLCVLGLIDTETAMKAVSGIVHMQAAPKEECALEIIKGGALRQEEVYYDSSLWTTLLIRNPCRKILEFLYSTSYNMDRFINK
Assay method text: 11β-HSD1 enzymatic activity, 3H-cortisone SPA, human enzyme
Test conditions: Human 11-β-HSD1 IC50 (nM), membrane, 125 nM 3H-cortisone, 1 hr room temperature
Quantity name: IC50 (nM)
The response must be a number in nM with no trailing unit.

# Compound, Measurement units, Readout number
records = [
    ("CCC(C)(C)c1ccc(S(=O)(=O)N2C[C@@H]3C[C@H]2CN3C)cc1", "nM", 333),
    ("CC(C)(C)c1ccc(S(=O)(=O)N2C3CCC2CC(O)(Cc2ccccc2)C3)cc1 (stereo not shown)", "nM", 740),
]

Let's switch to this compound now.
**Query** IC50 lookup needed for CC(C)(C)c1ccc(S(=O)(=O)N2C3CCC2CC(Oc2ccc(C#N)cn2)C3)cc1 (single isomer, unassigned) [Compound 6] , thanks.
**Result** 413
